Every entry's value here was drawn from patent US10494332B2.

Target: VHX (Homo sapiens)
Sequence (Q9NRW4 whole entry): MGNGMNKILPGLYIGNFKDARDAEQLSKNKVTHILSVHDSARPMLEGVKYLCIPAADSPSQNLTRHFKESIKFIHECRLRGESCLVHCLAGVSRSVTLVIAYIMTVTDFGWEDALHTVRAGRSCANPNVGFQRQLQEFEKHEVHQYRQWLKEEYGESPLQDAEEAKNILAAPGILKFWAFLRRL
Test: PTP inhibition assay (pNPP)
Type: biochemical
Details: IC50 VHX, pNPP at Km, pH 7.0, 25° C.
pIC50: −log10 of the molar value.
# Lookup of reported pIC50 keyed by entry

stdin: Please state recorded pIC50 (tested on VHX (Homo sapiens)) of `Cc1c(Br)cc(NC(=O)CS(=O)(=O)O)cc1Br`
stdout: < 4.00

stdin: State its pIC50 on VHX (Homo sapiens): O=C(Nc1ccc(OCc2ccccc2)c(Cl)c1)C(=O)Nc1ccccc1NC(=O)C(c1ccccc1)S(=O)(=O)O (centres unmarked) [Compound L319-21-M50]
stdout: < 4.30

Next:
stdin: Under VHX (Homo sapiens): pIC50 value of O=C(Nc1ccc(-n2ccnc2)cc1)C(c1ccccc1)S(=O)(=O)O (centres unmarked) [Compound L319M63] ?
stdout: < 3.70

stdin: Form field - read-out: pIC50; system: VHX (Homo sapiens); submitted item: Cc1c(Br)cc(NC(=O)C(c2ccccc2)S(=O)(=O)O)cc1Br (centres unmarked) [Compound L319M34]
stdout: 4.04

stdin: Short answer please: pIC50, VHX (Homo sapiens), entry O=C(Nc1ccc(-c2ccccc2)cc1)C(c1ccccc1)S(=O)(=O)O (centres unmarked) [Compound L319N08]
stdout: < 3.70
